# Tested on: BGC-823
# assay summary: Cytotoxicity against human BGC823 cells after 96 hrs by MTT assay
# condition label: BGC-823, 96 h
pIC50: −log10 of the molar value.
endpoint name: pIC50

GET /value?item= COC(=O)C(Cc1ccc(O)cc1)NC(=O)Cn1cc(C2=C(c3c[nH]c4ccccc34)C(=O)N(C)C2=O)c2ccccc21 (single isomer, unassigned) &field=pIC50 returns < 4.00

GET /value?item= COC(=O)C(Cc1ccc(O)c(O)c1)NC(=O)Cn1cc(C2=C(c3c[nH]c4ccccc34)C(=O)N(C)C2=O)c2ccccc21 (single isomer, unassigned) &field=pIC50 returns < 4.00

GET /value?item= CC[C@H](C)[C@@H](NC(=O)Cn1cc(C2=C(c3c[nH]c4ccccc34)C(=O)N(C)C2=O)c2ccccc21)C(=O)OC &field=pIC50 returns < 4.00
